Target: human recombinant BACE1 (Homo sapiens (Human))
Sequence (P56817 46-501): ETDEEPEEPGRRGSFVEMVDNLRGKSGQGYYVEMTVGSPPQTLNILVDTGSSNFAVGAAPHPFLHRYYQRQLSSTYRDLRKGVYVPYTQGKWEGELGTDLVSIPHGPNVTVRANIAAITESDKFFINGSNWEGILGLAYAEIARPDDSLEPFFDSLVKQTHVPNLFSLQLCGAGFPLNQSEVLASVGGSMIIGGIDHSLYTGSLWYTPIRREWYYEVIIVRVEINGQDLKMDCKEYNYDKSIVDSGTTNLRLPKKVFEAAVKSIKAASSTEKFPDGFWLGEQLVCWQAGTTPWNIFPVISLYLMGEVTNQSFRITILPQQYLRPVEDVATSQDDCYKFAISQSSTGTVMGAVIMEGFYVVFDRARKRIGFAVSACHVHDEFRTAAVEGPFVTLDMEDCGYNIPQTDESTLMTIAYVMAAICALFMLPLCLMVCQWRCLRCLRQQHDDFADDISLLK
Assay: In vitro enzymatic BACE1 FRET assay
Type: biochemical
Conditions: read-out: IC50 IP (μM) BACE1 enzyme
// bucketize IC50: class 0: < 0.0009 µM; class 1: ≥ 0.0009 µM and < 0.008 µM; class 2: ≥ 0.008 µM

{"columns": ["Compound", "Group label"],
 "data": [
  ["C#CCOc1cnc2c(Nc3ccc(F)c([C@@]4(CF)N=C(N)S[C@H]5C[C@H]54)c3)ncnc2c1", "class 2"],
  ["C[C@]1(c2cc(NC(=O)c3cnc(OCC(F)(F)F)cn3)ccc2F)N=C(N)S[C@@]2(C(=O)NC3CC3)C[C@H]21", "class 0"],
  ["COC[C@]12C[C@H]1[C@@](C)(c1cc(NC(=O)c3ncc(OCC(F)(F)F)nc3C)ccc1F)N=C(N)S2", "class 2"],
  ["COC[C@]12C[C@H]1[C@@](C)(c1cc(Nc3ncc(F)c4cc(OCc5ncco5)cnc34)cc(F)c1F)N=C(N)S2", "class 1"],
  ["NC1=N[C@](CF)(c2cc(NC(=O)c3cnc(OCc4ncco4)cn3)ccc2F)[C@@H]2C[C@]2(c2cnco2)S1", "class 0"],
  ["C[C@]1(c2cc(NC(=O)c3cnc(OCc4ncco4)cn3)ccc2F)N=C(N)S[C@@]2(C(=O)NC3CC3)C[C@H]21", "class 0"],
  ["Cc1cc(OCc2ncco2)cnc1C(=O)Nc1ccc(F)c([C@@]2(C)N=C(N)S[C@@]3(CF)C[C@H]32)c1", "class 1"],
  ["COC(=O)[C@]12C[C@H]1[C@@](C)(c1cc(NC(=O)c3ccc(Cl)cn3)cc(F)c1F)N=C(N)S2", "class 1"],
  ["COC[C@]12C[C@H]1[C@@](C)(c1cc(NC(=O)c3cnc(OCC4CCO4)cn3)cc(F)c1F)N=C(N)S2 (stereo partly drawn)", "class 1"],
  ["COC[C@]12C[C@H]1[C@@](C)(c1cc(Nc3ncnc4cc(Cl)cnc34)cnc1F)N=C(N)S2", "class 2"],
  ["Cc1noc(COc2cnc(C(=O)Nc3ccc(F)c([C@@]4(C)N=C(N)S[C@@]5(C(F)F)C[C@@H]45)c3)cn2)n1", "class 1"],
  ["C[C@]1(c2cc(Nc3ncnc4cc(C#N)cnc34)ccc2F)N=C(N)S[C@]2(CO)[C@H]1C2(F)F", "class 1"]
]}
